All figures here come from patent US11597760.

- studySystem: human C5 (human)
- measurementNotes: SPR, pH 5.8, 37C
measurementLabel: Kd (nM)
// return numeric value only (unit: nM, not printed)

{"columns": ["binder", "quantityUnit", "dataValue"],
 "data": [
  ["305LO23-SG115 (antibody, V domains shown) VH: QVQLVESGGGLVQPGGSLRLSCAASGFTVHSSYYMAWVRQAPGKGLEWVSGIFTGSGATYKAEWAKGRVTISKDTSKNQVVLTMTNMDPVDTATYYCASDAGYDYPTHAMHYWGQGTLVTVSS VL: DIQMTQSPSSLSASVGDRVTITCRASQGISSSLAWYQQKPGQAPRLLIYGASTTQSGVPSRFSGSGSGTDFTLTISSLQPEDFATYYCQNTKVGSSYGNTFGGGTKVEIK", "nM", 64.1],
  ["305LO16-SG422 (antibody, V domains shown) VH: QVQLVESGGGLVQPGRSLRLSCAASGFTVHSSYYMAWVRQAPGKGLEWVGAIFTGSGAEYKAEWVKGRFTISRDNSKNTLYLQMNSLRAEDTAVYYCASDAGYDYPTHAMHYWGRGTLVTVSS VL: DIQMTQSPSSLSASVGDRVTITCRASQGISSSLAWYQQKPGKAPKLLIYGASETESGVPSRFSGSGSGTDFTLTISSLQPEDFATYYCQNTKVGSSYGNTFGGGTKVEIK", "nM", 79.5]
]}

Alright, here's another binder for you.
Input: Value lookup for Kd; key = 305LO20-SG422 (antibody, V domains shown) VH: QVQLVESGGGLVQPGGSLRLSCAASGFTVHSSYYMAWVRQAPGKGLEWVGAIFTGSGAEYKAEWAKGRVTISKDTSKNQVVLTMTNMDPVDTATYYCASDAGYDYPTHAMHYWGQGTLVTVSS VL: DIQMTQSPSSLSASVGDRVTITCRASQGISSSLAWYQQKPGQAPRLLIYGASETESGVPSRFSGSGSGTDFTLTISSLQPEDFATYYCQNTKVGSSYGNTFGGGTKVEIK
Output: 59.9
